Test: qHTS Assay for Identification of Small Molecule Agonists for Thrombopoietin (TPO) Signaling Pathway (AID 917); further: potency means the concentration at half of the fitted maximal effect
Details: TPO signaling pathway reporter cells, agonist qHTS, stimulated with TPO at its EC50; series mostly up to 38.5 µM
Results filed as inconclusive are left out. Active and inactive are the calls of the source. The call rests on the fitted dose curve; in most records, active means well fitted activation curve with a large enough effect; inconclusive means small, poorly fitted or top-dose-only effect, or effect the other way; inactive means flat fitted curve, though single readings scatter.
measurementLabel: Potency

O=C(O)[C@@H]1C[C@@H](C(=O)O)N1 ... inactive
CN1CCc2ccccc2Cc2[nH]c3ccccc3c2CC1 ... inactive
Clc1ccc(N2CCN(Cc3c[nH]c4ncccc34)CC2)cc1 ... inactive
O=c1[nH]c2cc([N+](=O)[O-])c([N+](=O)[O-])cc2[nH]c1=O ... inactive

Problem: Param item = CCCN(CC1CC1)c1nc(C)nc(Nc2c(Cl)cc(Cl)cc2Cl)c1Cl ; retrieve measured Potency.
Solution: inactive

Problem: Dear colleague, I am looking for the recorded Potency of the following molecule: CC(C)(C=O)Cc1cc(C(C)(C)C)c(O)c(C(C)(C)C)c1
Solution: inactive

Problem: Which Potency value belongs to N.N.O=C(O)C1(C(=O)O)CCC1.[Pt] ?
Solution: inactive

Problem: Give the measured Potency of O=S(=O)(c1cccc2c(I)cccc12)N1CCCNCC1 .
Solution: inactive

Problem: What value of Potency has been recorded for this entry: O=C(c1cc(O)c(O)c([N+](=O)[O-])c1)c1ccccc1F
Solution: inactive

Problem: So what does the record say about Potency for C[N+]1(C)CCC(OC(=O)C(c2ccccc2)c2ccccc2)CC1 ?
Solution: inactive

Problem: Recorded Potency of N=C(N)SCCc1ccc(CCSC(=N)N)cc1 , please.
Solution: inactive

Problem: Can you share its Potency? I mean this molecule: COc1cccc(C(=O)NCCN2CCN(c3ccc(Cl)cc3)CC2)c1
Solution: inactive

Problem: Look up Potency: O=C(O)c1cc(=O)c2c(Cl)cc(Cl)cc2[nH]1
Solution: inactive

Problem: Reported Potency for CCCCN1CCC(n2c(=O)[nH]c3ccccc32)CC1 : what is it?
Solution: inactive

Problem: // Potency lookup, key: O=C(Nc1cccc(C(=O)Nc2ccc(S(=O)(=O)O)c3cc(S(=O)(=O)O)cc(S(=O)(=O)O)c23)c1)Nc1cccc(C(=O)Nc2ccc(S(=O)(=O)O)c3cc(S(=O)(=O)O)cc(S(=O)(=O)O)c23)c1
Solution: inactive

Problem: Give the measured Potency of CN(C)c1nc2c(Br)c(Br)c(Br)c(Br)c2[nH]1 .
Solution: 1.26 µM (active)

Problem: For the molecule shown here, c1ccc(-c2ccccn2)nc1 , give the reported Potency.
Solution: inactive

Problem: Look up Potency: O=C(O)CC[C@@H](C(=O)O)N1C(=O)c2ccccc2C1=O
Solution: inactive

Problem: Need Potency of O=c1[nH]c2cc(C(F)(F)F)ccc2n1-c1cc(C(F)(F)F)ccc1O , thanks.
Solution: inactive

====

Biological target: Glucocorticoid receptor (Homo sapiens)
Assay: GR-GFP Redistribution (AID 450); further: potency means the concentration at half of the fitted maximal effect
Conditions: U2OS GR-GFP nuclear translocation, laser cytometry, 2 h
Active and inactive are the calls of the source.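 The calls were made as follows: active = compounds whose dose series gives a full or clear partial fitted curve of increased nuclear translocation; inconclusive = weak partial curve or effect only at the top dose; inactive = no dose-dependent translocation response.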
measurementLabel: Potency

// worked examples, Potency included
Nc1cc(-c2ccncc2)c[nH]c1=O ... > 20.6 µM (inactive)
CN1CCc2ccccc2Cc2[nH]c3ccccc3c2CC1 ... > 46 µM (inactive)
Oc1cc2c(cc1O)CN(C(=S)NCCc1ccc(Cl)cc1)CCC2 ... > 46 µM (inactive)
O=c1[nH]c2cc(Cl)c(Cl)cc2[nH]c1=O ... > 46 µM (inactive)
O=C1NC(O)=NC1(c1ccccc1)c1ccccc1 ... > 46 µM (inactive)

Problem: I am curious: what Potency value has been reported for O=c1[nH]c2cc([N+](=O)[O-])c([N+](=O)[O-])cc2[nH]c1=O ?
Solution: > 46 µM (inactive)

Problem: // lookup Potency for C[N+](C)(CCCCCC[N+](C)(C)CCCN1C(=O)c2cccc3cccc(c23)C1=O)CCCN1C(=O)c2cccc3cccc(c23)C1=O
Solution: > 46 µM (inactive)

Problem: Form field: reported Potency of O=S(=O)(c1cccc2c(I)cccc12)N1CCCNCC1
Solution: > 46 µM (inactive)

Problem: What value of Potency has been reported for the following molecule? N[C@H](CCCP(=O)(O)O)C(=O)O
Solution: > 46 µM (inactive)

Problem: Entry N#C/C(=C\c1c[nH]c2ccccc12)C(=O)c1ccc(O)c(O)c1 : reported Potency = ?
Solution: > 46 µM (inactive)

Problem: Need Potency, item CN(C)c1ccc(C(=C2C=CC(=[N+](C)C)C=C2)c2ccccc2)cc1
Solution: > 46 µM (inactive)
